target-under-test: Human cytomegalovirus DNA polymerase (Human cytomegalovirus, UniProt P08546)
Construct: made in house; host or cells: SF21 insect cells (baculovirus vector)
Sequence (P08546 whole entry): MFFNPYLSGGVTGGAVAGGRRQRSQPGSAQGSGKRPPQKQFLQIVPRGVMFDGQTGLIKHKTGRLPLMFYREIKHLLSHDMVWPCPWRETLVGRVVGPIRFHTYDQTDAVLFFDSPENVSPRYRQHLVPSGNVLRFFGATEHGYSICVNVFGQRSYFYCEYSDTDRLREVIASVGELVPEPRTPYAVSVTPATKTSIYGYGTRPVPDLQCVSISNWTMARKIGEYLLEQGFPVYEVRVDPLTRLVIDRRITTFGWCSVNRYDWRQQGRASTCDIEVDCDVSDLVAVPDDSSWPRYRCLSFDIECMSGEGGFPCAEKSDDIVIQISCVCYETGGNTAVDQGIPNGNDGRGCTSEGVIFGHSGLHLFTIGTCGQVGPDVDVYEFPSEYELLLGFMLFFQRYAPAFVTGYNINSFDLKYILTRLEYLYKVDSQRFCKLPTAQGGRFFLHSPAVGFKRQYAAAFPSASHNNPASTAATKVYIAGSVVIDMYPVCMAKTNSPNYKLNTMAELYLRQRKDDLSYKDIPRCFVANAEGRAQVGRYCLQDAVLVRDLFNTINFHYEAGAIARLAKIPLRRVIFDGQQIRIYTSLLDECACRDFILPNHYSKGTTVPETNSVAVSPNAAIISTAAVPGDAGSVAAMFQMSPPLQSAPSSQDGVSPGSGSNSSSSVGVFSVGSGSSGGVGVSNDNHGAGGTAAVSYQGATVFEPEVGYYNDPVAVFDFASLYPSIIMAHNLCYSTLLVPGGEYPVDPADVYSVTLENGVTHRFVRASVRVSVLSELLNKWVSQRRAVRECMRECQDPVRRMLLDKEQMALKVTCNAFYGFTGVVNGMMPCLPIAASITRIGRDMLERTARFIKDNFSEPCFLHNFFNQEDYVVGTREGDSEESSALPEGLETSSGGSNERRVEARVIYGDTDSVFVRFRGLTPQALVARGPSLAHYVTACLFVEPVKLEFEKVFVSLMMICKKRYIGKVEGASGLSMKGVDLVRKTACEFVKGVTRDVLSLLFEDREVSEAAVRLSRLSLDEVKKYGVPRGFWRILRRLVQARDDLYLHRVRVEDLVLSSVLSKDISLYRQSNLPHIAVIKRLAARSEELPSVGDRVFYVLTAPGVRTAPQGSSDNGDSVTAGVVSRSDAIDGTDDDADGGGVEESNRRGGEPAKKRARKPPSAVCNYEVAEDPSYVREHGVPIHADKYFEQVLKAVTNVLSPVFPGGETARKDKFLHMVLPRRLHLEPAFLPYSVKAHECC
procedure-summary: CMV polymerase assay (AlphaLISA)
Format: biochemical
test-conditions: polymerase assay of Example 27; HCMV polymerase 0.2 nM; read-out: CMV^a (IC50)
# note: exactly 500 nM is not below, so it is false; use true for IC50 strictly under it

Query :: IC50 strictly < 500 nM for this compound? Cn1nc(C(=O)NCc2ccc(Cl)cc2)c2c3c(ccc21)C(N1CCOCC1)CC3 (single isomer, unassigned) [Compound 16]
Result :: true

Query :: IC50 strictly < 500 nM for this compound? "Cn1nc(C(=O)NCc2ccc(Cl)cc2)c2ccc(N3CCn4nncc4C3)nc21"
Result :: false

Query :: IC50 strictly < 500 nM for this compound? "Cn1nc(C(=O)NCc2ccc([N+](=O)[O-])cc2)c2cc(CN3CCOCC3)ccc21"
Result :: false

Query :: IC50 strictly < 500 nM for this compound? "Cc1c(CN2CCCS(=O)(=O)CC2)ccc2c1c(C(=O)NCc1ccc(Cl)cc1)nn2C"
Result :: true

Query :: IC50 strictly < 500 nM for this compound? Cn1nc(C(=O)NCc2ccc(Cl)cc2)c2c3c(ccc21)C(N1CCOCC1)CC3 (centres unmarked) [Compound 17]
Result :: true

Query :: IC50 strictly < 500 nM for this compound? "Cn1nc(C(=O)NCc2ccc(Cl)cc2)c2c(F)c(CN3CCOCC3)ccc21"
Result :: true

Query :: IC50 strictly < 500 nM for this compound? "Cn1nc(C(=O)NCc2ccc(Cl)cc2)c2cnc(N3CCn4nncc4C3)cc21"
Result :: false

Query :: IC50 strictly < 500 nM for this compound? "Cn1nncc1COc1ccc2c(C(=O)NCc3ccc(Cl)cc3)nn(C)c2c1Cl"
Result :: true
